Target: Inadl_6, Q8NI35
Sequence (Q8NI35 1058-1167): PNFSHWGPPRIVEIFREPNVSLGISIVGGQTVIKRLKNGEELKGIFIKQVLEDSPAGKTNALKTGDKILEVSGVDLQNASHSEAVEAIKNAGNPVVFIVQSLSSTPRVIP
Assay: holdup assay
Design: key: below the threshold = too weak to quantify, mostly under pKd 3.1 to 4
Settings: plain residues with an end cap or a label only (N-terminal biotin on a linker: ahx)
assay endpoint: pKd

Study these solved cases before continuing.
# binder, pKd
measured = [
    ("TESNLQTSSC [CGN, Q9P2M7]", "below the threshold"),
    ("HTHSYIETHV [CNKSR2, Q8WXI2]", 4.22),
    ("QPRTWLQSPV [RTKN, Q9BST9]", "below the threshold"),
    ("TQKFRASTAL [FRMPD1, Q5SYB0]", "below the threshold"),
    ("APSRKLNTEI [TIAM1, Q13009]", "below the threshold"),
]

INPUT: Returns the measured pKd for the input binder. Input: EKQAKGDTEF [CACYBP, Q9HB71]
OUTPUT: below the threshold

INPUT: Field request: pKd | item: QDEKVKESYV [ABCA1, O95477]
OUTPUT: 4.29

INPUT: Entry under review: TEAKLTETNA [MYO18A, Q92614] . Reported pKd?
OUTPUT: below the threshold

INPUT: What does the record list as pKd for QNTDDVQTSF [ACE2, Q9BYF1] ?
OUTPUT: below the threshold

The origin of these recorded values is paper PMC9482650.
